System: MSSA (SH1000)
Assay: MIC against methicillin-susceptible S. aureus (MSSA)
Format: cell-based
Conditions: Staphylococcus aureus; MSSA (SH1000); 72 hours, 37 °C; read-out: MIC
The entries below come with measured MIC values attached.
Please respond with the number in µM and leave the unit unwritten.

| Compound | Measured Parameter | Obs Value |
| --- | --- | --- |
| CCCCCCCCCCCCCC[P+](CC)(CC)CC[P+](CC)(CC)CCCCCCCCCCCCCC | MIC | 8 |
| CCCCCCCCC[P+](CC[P+](CCCCCCCCC)(C1CCCCC1)C1CCCCC1)(C1CCCCC1)C1CCCCC1 | MIC | 1 |
| CCCCCCCC[P+](C)(C)CC[P+](C)(C)CCCCCCCC | MIC | 125 |
| CCCCCCCCC[P+](C)(C)CC[P+](C)(C)CCCCCCCCC | MIC | 8 |
| CCCCCCCCCC[P+](CC)(CC)CC[P+](CC)(CC)CCCCCCCCCC | MIC | 2 |
| CCCCCCCCCCC[P+](C)(C)CC[P+](C)(C)CCCCCCCCCCC | MIC | 2 |
| CCCCCCCC[P+](CC[P+](CCCCCCCC)(C1CCCCC1)C1CCCCC1)(C1CCCCC1)C1CCCCC1 | MIC | 2 |
| CCCCCCCCCCC[P+](CC)(CC)CC[P+](CC)(CC)CCCCCCCCCCC | MIC | 1 |

Prompt: Param item = CCCCCCCCCCCC[N+](C)(C)CC[N+](C)(C)CCCCCCCCCCCC [12(2)12, reference compound] ; retrieve measured MIC.
Response: 2

Prompt: Param item = CCCCCCCCCC[P+](CCCCCC[P+](CCCCCCCCCC)(c1ccccc1)c1ccccc1)(c1ccccc1)c1ccccc1 [^PhP6P-10,10, reference compound] ; retrieve measured MIC.
Response: 1

Prompt: Param item = "CCCCCCCCCC[P+](CC[P+](CCCCCCCCCC)(C1CCCCC1)C1CCCCC1)(C1CCCCC1)C1CCCCC1" ; retrieve measured MIC.
Response: 1

Prompt: Param item = "CCCCCCCCCCCC[P+](C)(C)CC[P+](C)(C)CCCCCCCCCCC" ; retrieve measured MIC.
Response: 2
